// provenance: patent US7442788B2

Below: a set of entries, each annotated with reported Molar ellipticity ([θ]ext) at about 270 nm.
test: Circular dichroism (CD) spectrum, molar ellipticity at about 270 nm as measure of base moiety orientation (syn/anti)
Assay type: physicochemical
conditions used: phosphate buffer (pH 7.2)
reported property: Molar ellipticity ([θ]ext) at about 270 nm (deg·cm2/dmol)

# compound, measured
data = [
    ("Cc1cn([C@H]2C[C@H](O)[C@@H](CN)O2)c(=O)[nH]c1=O [5′-NH2-Thd [A], 5′-amino-5′-deoxythymidine, reference compound]", 600),
    ("NC[C@H]1O[C@@H](n2ccc(=O)[nH]c2=O)[C@H](O)[C@@H]1O", 5100),
]

====

test: Circular dichroism (CD) spectrum, molar ellipticity at about 270 nm as measure of base moiety orientation (syn/anti)
Assay type: physicochemical
conditions used: phosphate buffer (pH 7.2)
Below: a set of entries, each annotated with reported [θ]max.
reported property: [θ]max

# compound, reported property, measured
rows = [
    ("NC[C@H]1O[C@@H](n2ccc(=O)[nH]c2=O)[C@H](O)[C@@H]1O [5′-NH2-Urd, 5′-amino-5′-deoxyuridine]", "[θ]max", "5100 deg cm^2dmol^−1"),
    ("O=c1ccn([C@@H]2O[C@H](CO)[C@@H](O)[C@H]2O)c(=O)[nH]1 [Urd, uridine, reference compound]", "[θ]max", "9700 deg cm^2dmol^−1"),
    ("Nc1ccn([C@@H]2O[C@H](CO)[C@@H](O)[C@H]2O)c(=O)n1 [Cytidine (Cyd), Cytidine, reference compound]", "[θ]max", "14200 deg cm^2dmol^−1"),
    ("NC[C@H]1O[C@@H](n2ccc(N)nc2=O)[C@H](O)[C@@H]1O [5′-NH2-Cyd, 5′-amino-5′-deoxycytidine]", "[θ]max", "8400 deg cm^2dmol^−1"),
]

====

Below: a set of entries, each annotated with reported Molar ellipticity ([θ]ext) at about 270 nm.
test: Circular dichroism (CD) spectrum, molar ellipticity at about 270 nm as measure of base moiety orientation (syn/anti)
Assay type: physicochemical
conditions used: borate buffer (pH 7.2)
reported property: Molar ellipticity ([θ]ext) at about 270 nm (deg·cm2/dmol)

# compound, measured
records = [
    ("Cc1cn([C@H]2C[C@H](O)[C@@H](CN)O2)c(=O)[nH]c1=O [5′-NH2-Thd [A], 5′-amino-5′-deoxythymidine, reference compound]", 950),
    ("NC[C@H]1O[C@@H](n2ccc(=O)[nH]c2=O)[C@H](O)[C@@H]1O [5′-NH2-Urd, 5′-amino-5′-deoxyuridine]", 1600),
]

====

test: Circular dichroism (CD) spectrum, molar ellipticity at about 270 nm as measure of base moiety orientation (syn/anti)
Format: physicochemical
conditions used: borate buffer (pH 7.2)
Below: a set of entries, each annotated with reported [θ]max.
reported property: [θ]max (deg cm^2dmol^−1)

# molecule, reported property, unit annotation, measured
rows = [
    ("NC[C@H]1O[C@@H](n2ccc(N)nc2=O)[C@H](O)[C@@H]1O [5′-NH2-Cyd, 5′-amino-5′-deoxycytidine]", "[θ]max", "deg cm^2dmol^−1", 4900),
    ("NC[C@H]1O[C@@H](n2ccc(=O)[nH]c2=O)[C@H](O)[C@@H]1O [5′-NH2-Urd, 5′-amino-5′-deoxyuridine]", "[θ]max", "deg cm^2dmol^−1", 1600),
    ("O=c1ccn([C@@H]2O[C@H](CO)[C@@H](O)[C@H]2O)c(=O)[nH]1 [Urd, uridine, reference compound]", "[θ]max", "deg cm^2dmol^−1", 7400),
    ("Nc1ccn([C@@H]2O[C@H](CO)[C@@H](O)[C@H]2O)c(=O)n1 [Cytidine (Cyd), Cytidine, reference compound]", "[θ]max", "deg cm^2dmol^−1", 12200),
]
